system: Jurkat cells; assay: Adaptation to G2 cell cycle arrest (G1 increment) in X-ray pre-arrested Jurkat cells, flow cytometry; assay type: cell-based, human; details: Homo sapiens, Jurkat, 24 h, Table 1; concentration causing half-maximal increase of % cells in G1 phase (G1 increment); Jurkat pre-arrested by 10 Gy X-ray, 24 hours with compound
pIC50: −log10 of the molar value.
property name: pIC50

CC1=C(C)C(=O)N(Cc2ccc(C(F)(F)F)cc2)C1=O 5.00
CC1=C(C)C(=O)N(Nc2cc(C(F)(F)F)ccc2Br)C1=O 5.00

[A] CC1=C(c2ccccc2)C(=O)N(Nc2ccc(C(F)(F)F)c(Cl)n2)C1=O
[B] CC1=C(C)C(=O)N(Nc2cccc(C(F)(F)F)c2)C1=O
Data request: Which of the two items, A and B , has the greater recorded pIC50? // return label of chosen record
Data returned: B
(B: 5.30, A: 5.00)
